System: A549
assayProtocol: Inhibition of Influenza A virus (A/Viet Nam/1203/2004(H5N1)) hemagglutininin-mediated viral entry into human A549 cells assessed as infectivity at 10 uM after 48 hrs postinfection by luciferase assay relative to control
Assay type: cell-based
Design: scale not given: the % may be the effect or the level left
endpoint: Activity
Field: value (include unit after the number)

molecule	endpoint	valueObserved
C[C@@H]1CC[C@@]2(OC1)O[C@H]1C[C@H]3[C@@H]4C[C@H](O)[C@H]5C[C@@H](O[C@@H]6O[C@H](CO)[C@@H](O)[C@H](O)[C@H]6O[C@@H]6O[C@@H](C)[C@H](O)[C@@H](O)[C@H]6O)CC[C@]5(C)[C@H]4CC[C@]3(C)[C@H]1[C@@H]2C	Activity	57.9%
C[C@@H](CO)CC[C@H]1O[C@H]2C[C@H]3[C@@H]4C[C@H](O)[C@H]5C[C@@H](O[C@@H]6O[C@H](CO)[C@@H](O[C@@H]7O[C@@H](C)[C@H](O)[C@@H](O)[C@H]7O)[C@H](O)[C@H]6O[C@@H]6O[C@@H](C)[C@H](O)[C@@H](O)[C@H]6O)CC[C@]5(C)[C@H]4CC[C@]3(C)[C@H]2[C@@H]1C	Activity	102%
COC(=O)[C@]12CC[C@@H](C)[C@H](C)[C@H]1C1=CC[C@@H]3[C@@]4(C)CC[C@H](O[C@@H]5O[C@H](CO)[C@@H](O[C@@H]6O[C@@H](C)[C@H](O)[C@@H](O)[C@H]6O)[C@H](O)[C@H]5O[C@@H]5O[C@@H](C)[C@H](O)[C@@H](O)[C@H]5O)C(C)(C)[C@@H]4CC[C@@]3(C)[C@]1(C)CC2	Activity	43.3%
C[C@@H]1O[C@@H](O[C@H]2[C@H](O[C@H]3CC[C@@]4(C)C(=CC[C@@H]5[C@@H]4CC[C@]4(C)C(=O)CC[C@@H]54)C3)O[C@H](CO)[C@@H](O[C@@H]3O[C@@H](C)[C@H](O)[C@@H](O)[C@H]3O)[C@@H]2O)[C@H](O)[C@H](O)[C@H]1O	Activity	106%
CC(=O)O[C@H]1C[C@@H]2[C@H](CC[C@]3(C)[C@@H]4[C@H](C[C@@H]23)O[C@]2(CC[C@@H](C)CO2)[C@H]4C)[C@@]2(C)CC[C@H](O[C@@H]3O[C@H](CO)[C@@H](O[C@@H]4O[C@@H](C)[C@H](O)[C@@H](O)[C@H]4O)[C@H](O)[C@H]3O[C@@H]3O[C@@H](C)[C@H](O)[C@@H](O)[C@H]3O)C[C@H]12	Activity	46.6%

Next up:
In: Item C[C@@H]1CC[C@@]2(OC1)O[C@H]1C[C@H]3[C@@H]4C[C@H](O)[C@H]5C[C@@H](O[C@@H]6O[C@H](CO)[C@@H](O[C@@H]7O[C@@H](C)[C@H](O)[C@@H](O)[C@H]7O)[C@H](O)[C@H]6O[C@@H]6O[C@@H](C)[C@H](O)[C@@H](O)[C@H]6O)CC[C@]5(C)[C@H]4CC[C@]3(C)[C@H]1[C@@H]2C has what recorded Activity?
Out: 36.3%

====

assayProtocol: Inhibition of Influenza A virus (A/Bar-headed Goose/Qinghai/59/05(H5N1)) hemagglutininin-mediated viral entry into human A549 cells assessed as luciferase activity after 48 hrs postinfection by luminometry
Assay type: cell-based
Reported pIC50 values for a set of compounds
The value called pIC50 is obtained by taking minus log10 of the concentration in mol/L.

The cases that follow already have their pIC50 on record.
compound	pIC50
CC(=O)O[C@H]1C[C@@H]2[C@H](CC[C@]3(C)[C@@H]4[C@H](C[C@@H]23)O[C@]2(CC[C@@H](C)CO2)[C@H]4C)[C@@]2(C)CC[C@H](O[C@@H]3O[C@H](CO)[C@@H](O[C@@H]4O[C@@H](C)[C@H](O)[C@@H](O)[C@H]4O)[C@H](O)[C@H]3O[C@@H]3O[C@@H](C)[C@H](O)[C@@H](O)[C@H]3O)C[C@H]12	5.12
C[C@@H]1CC[C@@]2(OC1)O[C@H]1C[C@H]3[C@@H]4C[C@H](O)[C@H]5C[C@@H](O[C@@H]6O[C@H](CO)[C@@H](O[C@@H]7O[C@@H](C)[C@H](O)[C@@H](O)[C@H]7O)[C@H](O)[C@H]6O[C@@H]6O[C@@H](C)[C@H](O)[C@@H](O)[C@H]6O)CC[C@]5(C)[C@H]4CC[C@]3(C)[C@H]1[C@@H]2C	5.14
Cc1cn([C@H]2C[C@H](N=[N+]=[N-])[C@@H](CO)O2)c(=O)[nH]c1=O [ZIDOVUDINE]	7.92

Next up:
In: Item COC(=O)[C@]12CC[C@@H](C)[C@H](C)[C@H]1C1=CC[C@@H]3[C@@]4(C)CC[C@H](O[C@@H]5O[C@H](CO)[C@@H](O[C@@H]6O[C@@H](C)[C@H](O)[C@@H](O)[C@H]6O)[C@H](O)[C@H]5O[C@@H]5O[C@@H](C)[C@H](O)[C@@H](O)[C@H]5O)C(C)(C)[C@@H]4CC[C@@]3(C)[C@]1(C)CC2 has what recorded pIC50?
Out: 5.22

====

Reported Activity values for a set of molecules
System: A549
assayProtocol: Inhibition of Influenza A virus (A/Viet Nam/1203/2004(H5N1)) hemagglutininin-mediated viral entry into human A549 cells assessed as infectivity at 10 uM after 48 hrs postinfection by luciferase assay relative to control
Assay type: cell-based
Design: scale not given: the % may be the effect or the level left
Enter your answer as a number in %; do not include the unit.

The cases that follow already have their Activity on record.
molecule	testTarget	unitInfo	Activity
COC(=O)[C@]12CCC(C)(C)C[C@H]1C1=CC[C@@H]3[C@@]4(C)CC[C@H](O[C@@H]5O[C@H](CO)[C@@H](O[C@@H]6O[C@@H](C)[C@H](O)[C@@H](O)[C@H]6O)[C@H](O)[C@H]5O[C@@H]5O[C@@H](C)[C@H](O)[C@@H](O)[C@H]5O)C(C)(C)[C@@H]4CC[C@@]3(C)[C@]1(C)CC2	A549	%	17.5
C[C@@H]1CC[C@@]2(OC1)O[C@H]1C[C@H]3[C@@H]4C[C@H](O)[C@H]5C[C@@H](O[C@@H]6O[C@H](CO)[C@@H](O[C@@H]7O[C@@H](C)[C@H](O)[C@@H](O)[C@H]7O)[C@H](O)[C@H]6O)CC[C@]5(C)[C@H]4CC[C@]3(C)[C@H]1[C@@H]2C	A549	%	87.4

Next up:
In: Item CCC(/C=C/[C@@H](C)[C@H]1CC[C@H]2[C@@H]3CC=C4C[C@@H](O[C@@H]5O[C@H](CO)[C@@H](O[C@@H]6O[C@@H](C)[C@H](O)[C@@H](O)[C@H]6O)[C@H](O)[C@H]5O[C@@H]5O[C@@H](C)[C@H](O)[C@@H](O)[C@H]5O)CC[C@]4(C)[C@H]3CC[C@]12C)C(C)C (stereo partly drawn) has what recorded Activity?
Out: 64.6

Data provenance: ChEMBL document CHEMBL1154771
